These data points were gathered from paper PMC9926234.

# tgt: SARS-CoV-2 NSP3 Mac1 (Severe acute respiratory syndrome coronavirus 2, UniProt P0DTD1)
# Assay type: binding
# protocol conditions: ligand occupancy after refinement (phenix.refine); crystal soaking of Mac1
measured endpoint: Refined occupancy
// response body must contain only the number

Worked cases, Refined occupancy given:
# molecule, tgt, Refined occupancy
data = [
    ("O=c1nc(N2CC(Cn3cnnc3)C3(CCC3)C2)cc(Cl)[nH]1 (stereo not drawn)", "SARS-CoV-2 NSP3 Mac1 (Severe acute respiratory syndrome coronavirus 2, UniProt P0DTD1)", 16),
    ("CC1(C)CN(c2ncnc3[nH]c4ccccc4c23)CC(CC(=O)O)O1 (stereo not drawn)", "SARS-CoV-2 NSP3 Mac1 (Severe acute respiratory syndrome coronavirus 2, UniProt P0DTD1)", 10),
    ("O=C(Cc1ccc(-n2cccn2)cc1)OCC1CCCNC1=O (stereo not drawn)", "SARS-CoV-2 NSP3 Mac1 (Severe acute respiratory syndrome coronavirus 2, UniProt P0DTD1)", 16),
]

Here `O=S1(=O)CC(CNc2ncnc3[nH]ccc23)C1` was tested on SARS-CoV-2 NSP3 Mac1 (Severe acute respiratory syndrome coronavirus 2, UniProt P0DTD1), and its Refined occupancy came to 18

Simply: O=C(O)C1(F)CN(c2ncnc3[nH]c4cc(F)ccc4c23)CC12CCC2 (stereo not drawn) , SARS-CoV-2 NSP3 Mac1 (Severe acute respiratory syndrome coronavirus 2, UniProt P0DTD1), Refined occupancy = 32

Lab entry: SARS-CoV-2 NSP3 Mac1 (Severe acute respiratory syndrome coronavirus 2, UniProt P0DTD1) assay, molecule `O=C(OCCN1CCOC1=O)c1ncnc2[nH]ccc12` , Refined occupancy = 76

Form: item O=C(NC1c2cccc(O)c2CC1C(=O)O)c1ccc2[nH]ccc2c1 (stereo not drawn) ; test system SARS-CoV-2 NSP3 Mac1 (Severe acute respiratory syndrome coronavirus 2, UniProt P0DTD1); Refined occupancy: 44

Response field Refined occupancy (SARS-CoV-2 NSP3 Mac1 (Severe acute respiratory syndrome coronavirus 2, UniProt P0DTD1)) for item `Nc1ncc(S(=O)(=O)N2CC(F)(F)C[C@H]2C(=O)O)cn1` : 38

The measured Refined occupancy that CNC(=O)Nc1ccc(C(=O)NC2c3cccc(O)c3CC2C(=O)O)cc1 (stereo not drawn) showed for SARS-CoV-2 NSP3 Mac1 (Severe acute respiratory syndrome coronavirus 2, UniProt P0DTD1) is 40

Refined occupancy on SARS-CoV-2 NSP3 Mac1 (Severe acute respiratory syndrome coronavirus 2, UniProt P0DTD1) for O=C(NC1c2cccc(O)c2CC1C(=O)O)c1ccc2[nH]cnc2c1 (stereo not drawn) is 46

Query O=C(O)CC1CN(c2ncnc3[nH]c4cc(F)ccc4c23)CC2(CCC2)O1 (stereo not drawn) on SARS-CoV-2 NSP3 Mac1 (Severe acute respiratory syndrome coronavirus 2, UniProt P0DTD1); Refined occupancy returned: 22

`CN(CC(=O)O)C(=O)c1ccc2n[nH]c(=O)n2c1` tested on SARS-CoV-2 NSP3 Mac1 (Severe acute respiratory syndrome coronavirus 2, UniProt P0DTD1) gave Refined occupancy: 32

I looked up O=C(Nc1ccc(C(=O)NC2c3cccc(O)c3CC2C(=O)O)c(Cl)c1)NC1CC1 (stereo not drawn) and its Refined occupancy for SARS-CoV-2 NSP3 Mac1 (Severe acute respiratory syndrome coronavirus 2, UniProt P0DTD1) was 26

The molecule c1csc(CC2CCN(c3ncnc4[nH]ccc34)C2)n1 (stereo not drawn) on SARS-CoV-2 NSP3 Mac1 (Severe acute respiratory syndrome coronavirus 2, UniProt P0DTD1): Refined occupancy was 60

Refined occupancy on SARS-CoV-2 NSP3 Mac1 (Severe acute respiratory syndrome coronavirus 2, UniProt P0DTD1) for O=C(O)CC1CN(c2ncnc3[nH]ccc23)CCO1 (stereo not drawn) is 18

The molecule `O[C@@H]1CC[C@H](Nc2ncnc3[nH]c4cc(F)ccc4c23)C1` , tested on SARS-CoV-2 NSP3 Mac1 (Severe acute respiratory syndrome coronavirus 2, UniProt P0DTD1), showed Refined occupancy of 14

The reported Refined occupancy value, SARS-CoV-2 NSP3 Mac1 (Severe acute respiratory syndrome coronavirus 2, UniProt P0DTD1), for O=C1OCCN1C1CCN(c2ncnc3[nH]c4cc(F)ccc4c23)C1 (stereo not drawn) reads 12

// Refined occupancy (SARS-CoV-2 NSP3 Mac1 (Severe acute respiratory syndrome coronavirus 2, UniProt P0DTD1)) for O=C(Nc1ccccc1)Nc1ccc(C(=O)NC2c3cccc(O)c3CC2C(=O)O)cc1 (stereo not drawn) = 34

Reported SARS-CoV-2 NSP3 Mac1 (Severe acute respiratory syndrome coronavirus 2, UniProt P0DTD1) Refined occupancy for item O=C(O)C1(F)CN(c2ncnc3[nH]c4cc(F)ccc4c23)CC1C1CC1 (stereo not drawn) was 24

Bench note, SARS-CoV-2 NSP3 Mac1 (Severe acute respiratory syndrome coronavirus 2, UniProt P0DTD1): `C[C@@H]1CN(c2ncnc3[nH]c4ccccc4c23)C[C@@H](CO)O1` , Refined occupancy reads 20

Simply: `O=C(O)C[C@@H]1CCCN(c2ncnc3nc[nH]c23)C1` , SARS-CoV-2 NSP3 Mac1 (Severe acute respiratory syndrome coronavirus 2, UniProt P0DTD1), Refined occupancy = 38

Refined occupancy of CC(CSc1nnc2[nH]cnn12)c1ccccc1 (stereo not drawn) , assay on SARS-CoV-2 NSP3 Mac1 (Severe acute respiratory syndrome coronavirus 2, UniProt P0DTD1), is 40

Form field Refined occupancy for item CCc1c[nH]c2ncnc(N3CCCC(Cc4nc(C)no4)C3)c12 (stereo not drawn) on SARS-CoV-2 NSP3 Mac1 (Severe acute respiratory syndrome coronavirus 2, UniProt P0DTD1): 40

Value (Refined occupancy, SARS-CoV-2 NSP3 Mac1 (Severe acute respiratory syndrome coronavirus 2, UniProt P0DTD1)) for record `CCC(=O)Nc1nc(C)c(S(=O)(=O)Nc2cccc(C#N)c2)s1` = 66

----------
# tgt: SARS-CoV-2 NSP3 Mac1 (Severe acute respiratory syndrome coronavirus 2)
# Assay type: binding
# protocol conditions: ligand occupancy after refinement (phenix.refine); crystal soaking of Mac1
measured endpoint: Refined occupancy

Worked examples, 6 compounds total:
# compound, measurement
records = [
    ("Cc1cc(S(=O)(=O)N2CCC[C@H](C(N)=O)C2)cnc1N [ZINC001364774273]", 20),
    ("Cc1oc(C(N)=O)cc1S(=O)(=O)Nc1cnc(Cl)c(C#N)c1 [Compound Z6746]", 32),
    ("O=C(Nc1ccc(C(=O)NCc2c(C(=O)O)[nH]c3ccccc23)cc1)NC1CC1 [Z8539_0027]", 46),
    ("O=C(O)C1(F)CN(c2cc(Nc3ccccc3)ncn2)CC12CCC2 (stereo not drawn) [LL1_0025]", 28),
    ("Nc1ncnc2c1ncn2Cc1ccc(Cl)cn1 [ZINC000559260078]", 30),
    ("Nc1ncnc(N2CCC(Oc3ccncc3)C2)c1Cl (stereo not drawn) [ZINC000302059710]", 26),
]

Lab note: measured Refined occupancy of O=c1[nH]nc(C2CCCN(c3ncnc4[nH]c5cc(F)ccc5c34)C2)o1 (stereo not drawn) [LL1_0017] was 18

Reported Refined occupancy of OCC1CN(c2ncnc3[nH]c4cc(F)ccc4c23)CC2(CCC2)O1 (stereo not drawn) [LL123_0025] : 14

Entry CNC(=O)Nc1ccc(C(=O)NC2c3ccccc3CC2C(=O)O)cc1 (stereo not drawn) [Z8515] — recorded Refined occupancy = 18

CN(Cc1ccccn1)c1ncnc2[nH]c3cc(F)ccc3c12 [LRM-0028] has a reported Refined occupancy of 30

For record O=C1CCCN1CCSc1ncnc2[nH]cnc12 [Compound Z9920] the listed Refined occupancy is 42

// field: Refined occupancy; key: O=C(O)[C@H]1CCCC[C@H]1Nc1ncnc2[nH]c3cc(F)ccc3c12 [LRH-0021] ; value = 24

----------
# tgt: SARS-CoV-2 NSP3 Mac1 (Severe acute respiratory syndrome coronavirus 2, UniProt P0DTD1)
# Type: binding
# Parameters: contains a conserved macrodomain enzyme (Mac1)
# protocol conditions: DSF dose responsiveness, 1 µM nsp3 mac1; adj p given
measured endpoint: Spearman est (compound concentration vs apparent Tm)
Answer using only a numeral; do not append any unit.

Consider the worked cases shown below.
# molecule, tgt, measurement
data = [
    ("O=C(NCc1nc2ccccc2c(=O)[nH]1)Nc1cccnc1", "SARS-CoV-2 NSP3 Mac1 (Severe acute respiratory syndrome coronavirus 2, UniProt P0DTD1)", "−0.41"),
    ("O=C(CSc1nnn[nH]1)c1c[nH]c2ncc(Br)cc12", "SARS-CoV-2 NSP3 Mac1 (Severe acute respiratory syndrome coronavirus 2, UniProt P0DTD1)", 0.54),
    ("CCc1c[nH]c2ncc(-c3c(C(=O)O)c(C)nn3C)cc12", "SARS-CoV-2 NSP3 Mac1 (Severe acute respiratory syndrome coronavirus 2, UniProt P0DTD1)", 0.15),
    ("CCc1c[nH]c2ncnc(N3CCCC(Cc4nc(C)no4)C3)c12 (centres unmarked)", "SARS-CoV-2 NSP3 Mac1 (Severe acute respiratory syndrome coronavirus 2, UniProt P0DTD1)", 0.68),
]

Sure, the documented Spearman est (compound concentration vs apparent Tm) for `O=C(O)C[C@@H]1CCCN(c2ncnc3nc[nH]c23)C1` is 0.29

Lab note: measured Spearman est (compound concentration vs apparent Tm) of COC(=O)Nc1ccc(C(=O)NC2c3ccccc3CC2C(=O)O)cc1 (centres unmarked) was 0.72

Recorded result, Cc1cc(C(=O)C(C#N)c2nnc3n2CCCCC3)cc(O)n1 (centres unmarked) , Spearman est (compound concentration vs apparent Tm): −0.33

molecule `Nc1nc(N)c2ncn(Cc3csc(Cl)n3)c2n1` , Spearman est (compound concentration vs apparent Tm) observed: 0.89
